# target: IL16_4, Q14005
# Sequence (Q14005 1229-1329): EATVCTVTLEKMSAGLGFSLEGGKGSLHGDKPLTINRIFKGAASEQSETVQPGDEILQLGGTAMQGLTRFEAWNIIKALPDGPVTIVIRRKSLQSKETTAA
# assayExplanation: holdup assay
# Parameters: key: below the threshold = too weak to quantify, mostly under pKd 3.1 to 4
# conditionDetails: plain residues with an end cap or a label only (N-terminal biotin on a linker: ttds)

# binder, pKd
data = [
    ("SSIDLWETAL [SLC15A5, A6NIM6]", "below the threshold"),
    ("SRSRRRETAL [HPV33-E6, P06427]", "below the threshold"),
    ("NPDALPETLV [ARHGAP6, O43182]", "below the threshold"),
]

src = paper PMC9482650
